Data credit: ChEMBL document CHEMBL4177669

# assay_method_text: Half life in cynomolgus monkey at 10 mg/kg, po
# Type: ADME, organism-based, Macaca fascicularis
# settings: in vivo
metric_name: half-life (h)
Give bare numbers, in h.

response.value for C/C(=C\COc1ccccc1CN(C)C(=O)c1ccc(-c2ccco2)cc1)CCC(=O)O (field: half-life) = 1.1

* * *

# assay_method_text: AUC in CD-1 mouse at 3 mg/kg, iv
# Format: ADME, organism-based
# settings: in vivo
For each record, write down the corresponding AUC.
One number for each entry, in ng·h/mL.

// worked examples, AUC included
compound | AUC [ng·h/mL]
CN(Cc1ccccc1OCCCCC(C)(C)C(=O)O)C(=O)c1ccc(-c2ccco2)cc1 | 48400
CN(Cc1ccccc1OCCCCCC(=O)O)C(=O)c1ccc(-c2ccco2)cc1 | 1100
C/C(=C\CCCOc1ccccc1CN(C)C(=O)c1ccc(-c2ccco2)cc1)C(=O)O | 1300
C/C(=C\COc1ccccc1CN(C)C(=O)c1ccc(-c2ccco2)cc1)CCC(=O)O | 3300

Hi! Can you tell me AUC for each of these compounds?
1. CN(Cc1ccccc1OCCC[C@@H]1C[C@H]1C(=O)O)C(=O)c1ccc(-c2ccco2)cc1 (racemic)
2. CC(CCOc1ccccc1CN(C)C(=O)c1ccc(-c2ccco2)cc1)CCC(=O)O (centres undefined)
3. CN(Cc1ccccc1OCCC/C=C/C(=O)O)C(=O)c1ccc(-c2ccco2)cc1
4. CN(Cc1ccccc1OCCC[C@@H]1C[C@@H]1C(=O)O)C(=O)c1ccc(-c2ccco2)cc1 (racemic)
5. C[C@H](CCCOc1ccccc1CN(C)C(=O)c1ccc(-c2ccco2)cc1)CC(=O)O

1. 40500
2. 11800
3. 750
4. 30100
5. 77700

* * *

# assay_method_text: AUC in cynomolgus monkey at 3 mg/kg, iv
# Assay type: ADME, organism-based, Macaca fascicularis
# settings: in vivo
metric_name: AUC (ng·h/mL)
One number for each entry, in ng·h/mL.

response.value for C/C(=C\COc1ccccc1CN(C)C(=O)c1ccc(-c2ccco2)cc1)CCC(=O)O (field: AUC) = 6200

* * *

# assay_method_text: AUC in CD-1 mouse at 10 mg/kg, po
# Type: ADME, organism-based
# settings: in vivo
metric_name: AUC (ng·h/mL)
Give bare numbers, in ng·h/mL.

response.value for C/C(=C\COc1ccccc1CN(C)C(=O)c1ccc(-c2ccco2)cc1)CCC(=O)O (field: AUC) = 16600

* * *

# assay_method_text: Half life in CD-1 mouse at 10 mg/kg, po
# Type: ADME, organism-based
# settings: in vivo
metric_name: half-life (h)
Give bare numbers, in h.

response.value for C/C(=C\COc1ccccc1CN(C)C(=O)c1ccc(-c2ccco2)cc1)CCC(=O)O (field: half-life) = 4.3

* * *

# assay_method_text: Clearance in Wistar rat at 3 mg/kg, iv
# Type: ADME, organism-based
# settings: in vivo
metric_name: clearance (mL/min/kg)
One number for each entry, in mL/min/kg.

response.value for C/C(=C\COc1ccccc1CN(C)C(=O)c1ccc(-c2ccco2)cc1)CCC(=O)O (field: clearance) = 7.2

* * *

# assay_method_text: AUC in cynomolgus monkey at 10 mg/kg, po
# Assay type: ADME, organism-based, Macaca fascicularis
# settings: in vivo
metric_name: AUC (ng·h/mL)
One number for each entry, in ng·h/mL.

response.value for C/C(=C\COc1ccccc1CN(C)C(=O)c1ccc(-c2ccco2)cc1)CCC(=O)O (field: AUC) = 6050

* * *

# assay_method_text: Oral bioavailability in Wistar rat at 10 mg/kg
# Assay type: ADME, organism-based
# settings: in vivo
metric_name: bioavailability (%)
Answers are plain numbers, in %.

response.value for C/C(=C\COc1ccccc1CN(C)C(=O)c1ccc(-c2ccco2)cc1)CCC(=O)O (field: bioavailability) = 82

* * *

# assay_method_text: Clearance in CD-1 mouse at 1 mg/kg, iv
# Type: ADME, organism-based
# settings: in vivo
metric_name: clearance (mL/min/kg)
Give bare numbers, in mL/min/kg.

response.value for C/C(=C\COc1ccccc1CN(C)C(=O)c1ccc(-c2ccco2)cc1)CCC(=O)O (field: clearance) = 8.4

* * *

# assay_method_text: Drug metabolism in rat hepatocytes assessed as acyl glucoronidation at 10 […] after 30 to 120 mins by LC-MS analysis
# Type: ADME, cell-based, Hepatocyte
metric_name: Drug metabolism

compound | Drug metabolism
CC(CCCCOc1ccccc1CN(C)C(=O)c1ccc(-c2ccco2)cc1)C(=O)O (configuration not stated) | Metabolite_Detected
CN(Cc1ccccc1OCCCCC(C)(C)C(=O)O)C(=O)c1ccc(-c2ccco2)cc1 | Metabolite_Detected
CN(Cc1ccccc1OCCCCCC(=O)O)C(=O)c1ccc(-c2ccco2)cc1 | Metabolite_Detected
C/C(=C\COc1ccccc1CN(C)C(=O)c1ccc(-c2ccco2)cc1)CCC(=O)O | Metabolite_Detected
CN(Cc1ccccc1OCCC[C@@H]1C[C@@H]1C(=O)O)C(=O)c1ccc(-c2ccco2)cc1 (racemic) | Metabolite_Detected
CN(Cc1ccccc1OCCC/C=C/C(=O)O)C(=O)c1ccc(-c2ccco2)cc1 | Metabolite_Detected

Please examine the following record next.
response.value for CN(Cc1ccccc1OCCC[C@@H]1C[C@H]1C(=O)O)C(=O)c1ccc(-c2ccco2)cc1 (racemic) (field: Drug metabolism) = Metabolite_Detected

* * *

For each record, write down the corresponding AUC.
# assay_method_text: AUC in CD-1 mouse at 3 mg/kg, iv
# Assay type: ADME, organism-based
# settings: in vivo
Give bare numbers, in ng·h/mL.

// worked examples, AUC included
molecule | reported_result
C/C(=C\C(=O)O)CCCOc1ccccc1CN(C)C(=O)c1ccc(-c2ccco2)cc1 | 4700
CC(CCCCOc1ccccc1CN(C)C(=O)c1ccc(-c2ccco2)cc1)C(=O)O (stereo not drawn) | 11400

Please examine the following record next.
response.value for C[C@@H](CCCOc1ccccc1CN(C)C(=O)c1ccc(-c2ccco2)cc1)CC(=O)O (field: AUC) = 30800

* * *

# assay_method_text: Oral bioavailability in CD-1 mouse at 10 mg/kg
# Assay type: ADME, organism-based
# settings: in vivo
metric_name: bioavailability (%)
One number for each entry, in %.

response.value for C/C(=C\COc1ccccc1CN(C)C(=O)c1ccc(-c2ccco2)cc1)CCC(=O)O (field: bioavailability) = 84

* * *

# assay_method_text: Oral bioavailability in cynomolgus monkey at 10 mg/kg
# Type: ADME, organism-based, Macaca fascicularis
# settings: in vivo
metric_name: bioavailability (%)
Numbers only, in %.

response.value for C/C(=C\COc1ccccc1CN(C)C(=O)c1ccc(-c2ccco2)cc1)CCC(=O)O (field: bioavailability) = 29

* * *

# assay_method_text: Volume of distribution at steady state in Wistar rat at 3 mg/kg, iv
# Format: ADME, organism-based
# settings: in vivo, read-out: Vdss
metric_name: Vd (L/kg)
One number for each entry, in L/kg.

response.value for C/C(=C\COc1ccccc1CN(C)C(=O)c1ccc(-c2ccco2)cc1)CCC(=O)O (field: Vd) = 0.9

* * *

# assay_method_text: Clearance in CD-1 mouse at 3 mg/kg, iv
# Format: ADME, organism-based
# settings: in vivo
metric_name: clearance (mL/min/kg)
Numbers only, in mL/min/kg.

// worked examples, clearance included
compound | unit | reported_result
CN(Cc1ccccc1OCCCCCC(=O)O)C(=O)c1ccc(-c2ccco2)cc1 | mL/min/kg | 44
C/C(=C\C(=O)O)CCCOc1ccccc1CN(C)C(=O)c1ccc(-c2ccco2)cc1 | mL/min/kg | 11
CN(Cc1ccccc1OCCC/C=C/C(=O)O)C(=O)c1ccc(-c2ccco2)cc1 | mL/min/kg | 67
CN(Cc1ccccc1OCCC[C@@H]1C[C@@H]1C(=O)O)C(=O)c1ccc(-c2ccco2)cc1 (racemic) | mL/min/kg | 1.7
CC(CCCCOc1ccccc1CN(C)C(=O)c1ccc(-c2ccco2)cc1)C(=O)O (configuration not stated) | mL/min/kg | 3

Hi! Can you tell me clearance for each of these compounds?
1. C[C@H](CCCOc1ccccc1CN(C)C(=O)c1ccc(-c2ccco2)cc1)CC(=O)O
2. C[C@@H](CCCOc1ccccc1CN(C)C(=O)c1ccc(-c2ccco2)cc1)CC(=O)O

0.3
1.3

Hi! Can you tell me clearance for each of these compounds?
1. C/C(=C\CCCOc1ccccc1CN(C)C(=O)c1ccc(-c2ccco2)cc1)C(=O)O
2. C/C(=C\COc1ccccc1CN(C)C(=O)c1ccc(-c2ccco2)cc1)CCC(=O)O
3. CC(CCOc1ccccc1CN(C)C(=O)c1ccc(-c2ccco2)cc1)CCC(=O)O (configuration not stated)
4. CN(Cc1ccccc1OCCC[C@@H]1C[C@H]1C(=O)O)C(=O)c1ccc(-c2ccco2)cc1 (racemic)
5. CN(Cc1ccccc1OCCCCC(C)(C)C(=O)O)C(=O)c1ccc(-c2ccco2)cc1

4
15
4
0.6
1.3

* * *

# assay_method_text: Volume of distribution at steady state in CD-1 mouse at 1 mg/kg, iv
# Type: ADME, organism-based
# settings: in vivo, read-out: Vdss
metric_name: Vd (L/kg)
Numbers only, in L/kg.

response.value for C/C(=C\COc1ccccc1CN(C)C(=O)c1ccc(-c2ccco2)cc1)CCC(=O)O (field: Vd) = 2.6
